Let's look at some binders and their measured fold repression.
Target: T1, ECF16_3622
T1 chain: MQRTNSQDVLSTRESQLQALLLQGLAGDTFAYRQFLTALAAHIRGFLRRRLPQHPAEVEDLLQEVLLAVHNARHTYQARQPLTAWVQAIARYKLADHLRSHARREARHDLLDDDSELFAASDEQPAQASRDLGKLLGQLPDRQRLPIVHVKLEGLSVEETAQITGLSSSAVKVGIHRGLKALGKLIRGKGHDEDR
Measured Quantity: fold repression

Binder: AS16_3622 (protein) MMKTDELISLLATAEGPVDRHALARRLGLALLAGLLGALLLTVALYGVRSDLAEVARTPLFWAKVALPTSLALLGLWLTQRLARPGVRGGALWGLLGVPLLLVWLGAAISLFGAPPEARADLIFGRTWRTCALNITLLSTPVFIAVFWALRGLAPTRLRQAGAAGGLLAGSTATLVYCLHCPEMGVPFWGLWYLLGMLVPTLLGAVLGPRLLRW
Measurement: 254
--
Binder: AS02_915 (protein) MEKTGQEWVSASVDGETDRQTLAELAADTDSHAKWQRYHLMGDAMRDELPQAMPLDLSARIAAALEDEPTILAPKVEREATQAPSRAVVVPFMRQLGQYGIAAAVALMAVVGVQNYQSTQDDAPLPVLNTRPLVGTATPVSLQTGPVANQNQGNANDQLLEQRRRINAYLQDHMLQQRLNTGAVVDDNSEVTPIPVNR
Measurement: 4.3
--
Binder: AS03_1198 (protein) MDKDFDFDNIGKRTPYRTPDNFFEETQRKILERTVDEQRKKRRLKRIIPTVIAVAAVLAGILFTPSLRYMNTDTPSASNILAVDKNNVTTDPVDKWIKELSDEELEELVSFSENDIFLN
Measurement: 1.26
--
Binder: AS37_2513 (protein) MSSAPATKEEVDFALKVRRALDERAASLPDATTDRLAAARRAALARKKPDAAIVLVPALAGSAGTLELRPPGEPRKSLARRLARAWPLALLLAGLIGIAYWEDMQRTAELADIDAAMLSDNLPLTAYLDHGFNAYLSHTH
Measurement: 5.36
--
Binder: AS01_3473 (protein) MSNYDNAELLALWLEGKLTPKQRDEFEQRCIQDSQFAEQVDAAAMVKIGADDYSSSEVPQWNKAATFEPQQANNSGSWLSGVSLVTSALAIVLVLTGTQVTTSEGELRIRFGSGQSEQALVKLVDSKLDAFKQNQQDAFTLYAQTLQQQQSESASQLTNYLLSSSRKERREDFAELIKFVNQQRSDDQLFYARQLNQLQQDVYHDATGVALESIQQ
Measurement: 2.47
--
Binder: AS14_1324 (protein) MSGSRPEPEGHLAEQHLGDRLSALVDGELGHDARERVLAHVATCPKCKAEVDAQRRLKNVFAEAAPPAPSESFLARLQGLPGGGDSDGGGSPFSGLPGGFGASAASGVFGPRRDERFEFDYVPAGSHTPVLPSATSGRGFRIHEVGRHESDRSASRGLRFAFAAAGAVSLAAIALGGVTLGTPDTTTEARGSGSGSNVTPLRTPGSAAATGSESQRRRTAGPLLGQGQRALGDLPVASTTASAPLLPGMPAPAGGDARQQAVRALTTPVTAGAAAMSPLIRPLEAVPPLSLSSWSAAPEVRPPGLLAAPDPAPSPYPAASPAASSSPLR
Measurement: 6.46
